# Test system: INS-1E cells
# Type: cell-based, rat
# experimentalConditions: assay number 9; 0.1 mM glucose
resultType: 0.1mMGluc_INS1E SecretionMod Act IC50/EC50

For orientation, consider the following solved cases.
molecule="CN(C)CCOC(c1ccc(Cl)cc1)c1ccccn1 (centres unmarked)" measuredvalue="> 33.33 µM"
molecule=Oc1ccc(CCNCCCCCCNCCc2ccccc2)cc1O measuredvalue="> 33.33 µM"

What 0.1mMGluc_INS1E SecretionMod Act IC50/EC50 value was documented for this molecule, CCCCN1CCCCC1C(=O)Nc1c(C)cccc1C (centres unmarked) ?
> 33.33 µM

What 0.1mMGluc_INS1E SecretionMod Act IC50/EC50 value was documented for this molecule, Clc1ccc2c(c1)CCc1cccnc1C2=C1CCNCC1 ?
> 33.33 µM

What 0.1mMGluc_INS1E SecretionMod Act IC50/EC50 value was documented for this molecule, C#CCOC(C(=O)OCCN(C)C)(c1ccccc1)c1ccccc1 ?
9.666 µM

What 0.1mMGluc_INS1E SecretionMod Act IC50/EC50 value was documented for this molecule, CN(C)CC[C@@H](c1ccc(Br)cc1)c1ccccn1.O=C(O)/C=C\C(=O)O ?
6.368 µM

What 0.1mMGluc_INS1E SecretionMod Act IC50/EC50 value was documented for this molecule, Cl.Nc1c2c(nc3c1CCC3)CCCC2.O ?
> 33.33 µM

What 0.1mMGluc_INS1E SecretionMod Act IC50/EC50 value was documented for this molecule, Cc1ccc(CCn2c3c(c4cc(Cl)ccc42)CN(C)CC3)cn1 ?
> 33.33 µM

---

# Tested on: HT-29
# assayProcedure: cells
# Assay type: cell-based
# experimentalConditions: basal; HT-29; read-out: Basal_Viability ATP HT-29
resultType: IC50 (nM)
Quick reminder: number only, in nM, skip the unit.

What IC50 value was documented for this compound, CC(=O)[O][Hg][c]1ccccc1 ?
799

---

# Tested on: INS-1E cells
# assayProcedure: cells
# Type: cell-based, rat
# experimentalConditions: IC50 / EC50; INS-1E; read-out: Insulin Secretion
// EC50 lookup, one value per entry

For orientation, consider the following solved cases.
molecule=Cc1nc2ccccc2n1Cc1ccc(Cl)cc1 resulttype=EC50 measuredvalue="> 10 µM"
molecule="Cc1cc(CC(C)CC(C)(C)C)n(O)c(=O)c1 (stereo not drawn)" resulttype=EC50 measuredvalue="> 10 µM"

API: the following record is the query input.
Param readout= EC50; system= INS-1E cells; entry= C[C@@H]1C[C@@H]([C@H](O)CC2CC(=O)NC(=O)C2)C(=O)[C@@H](C)C1 ; returns value.
> 10 µM

---

# Tested on: alkaline phosphatase (ALP) activity in C2C12 cells
# Format: cell-based
# experimentalConditions: concentration response
resultType: IC50/EC50, WntCondMedia_Alk Phos C2C12 (assay number 6) (nM)
Quick reminder: number only, in nM, skip the unit.

smilesdata=COC(=O)Nc1nc2ccc(C(=O)C3CC3)cc2[nH]1 measuredvalue=683.6
smilesdata=CCCCc1ccc2nc(NC(=O)OC)[nH]c2c1 measuredvalue=68.2
smilesdata=NC(N)=NN=C(/C=C/c1ccc([N+](=O)[O-])o1)/C=C/c1ccc([N+](=O)[O-])o1 measuredvalue=372

What IC50/EC50, WntCondMedia_Alk Phos C2C12 (assay number 6) value was documented for this molecule, CCCSc1ccc2nc(NC(=O)OC)[nH]c2c1 ?
12268.5

What IC50/EC50, WntCondMedia_Alk Phos C2C12 (assay number 6) value was documented for this molecule, CCc1nc(N)nc(N)c1-c1ccc(Cl)cc1 ?
67.7

What IC50/EC50, WntCondMedia_Alk Phos C2C12 (assay number 6) value was documented for this molecule, COC(=O)Nc1nc2ccc(Sc3ccccc3)cc2[nH]1 ?
438.2

What IC50/EC50, WntCondMedia_Alk Phos C2C12 (assay number 6) value was documented for this molecule, COC(=O)Nc1nc2ccc(C(=O)c3ccccc3)cc2[nH]1 ?
245.4

---

# Test system: INS-1E cells
# assayProcedure: cells
# Format: cell-based, rat
# experimentalConditions: Rattus norvegicus, INS-1E, read-out: Ins. sec. EC50
resultType: EC50

compound="O=C(NOCC1CC1)c1ccc(F)c(F)c1Nc1ccc(I)cc1Cl [PD-184352, reference compound]" measuredvalue="> 10 µM"
compound="CCCCCCCCCCCCCCCCNc1ccc(C(=O)O)cc1 [cetaben sodium, sodium p-(hexadecylamino) benzoate, reference compound]" measuredvalue="> 10 µM"
compound="CCCNCC(O)COc1ccccc1C(=O)CCc1ccccc1 (stereo not shown) [propafenone, reference compound]" measuredvalue="4.9 µM"

What EC50 value was documented for this compound, COc1cc(NCc2ccc3nc(N)nc(N)c3c2C)cc(OC)c1OC [trimetrexate, reference compound] ?
> 10 µM

What EC50 value was documented for this compound, CCc1nc(N)nc(N)c1-c1ccc(Cl)cc1 [pyrimethamine, reference compound] ?
> 10 µM

What EC50 value was documented for this compound, Cc1nc2ccc(CN(C)c3ccc(C(=O)N[C@@H](CCC(=O)O)C(=O)O)s3)cc2c(=O)[nH]1 [raltitrexed, reference compound] ?
> 10 µM

What EC50 value was documented for this compound, CN(C)CCC=C1c2ccccc2CCc2ccccc21 [amitriptyline, reference compound] ?
3 µM

---

# Tested on: Colo320
# assayProcedure: cells
# Format: cell-based
# experimentalConditions: assay number 27; basal
resultType: Basal_Viability ATP Colo 320 IC50/EC50 (µM)
Quick reminder: number only, in µM, skip the unit.

compound="Cc1cc(=O)c2c(O)c3c(O)cc(=O)c4c3c3c(cc(O)c1c23)C(C)(C)C=4O [NCGC00160275-03]" measuredvalue=0.08199

Param readout= Basal_Viability ATP Colo 320 IC50/EC50; system= Colo320; entry= C[C@@H]1CN(CCCn2c3ccccc3c3ccccc32)C[C@H](C)N1 [NCGC00025187-02] ; returns value.
15.9001

Param readout= Basal_Viability ATP Colo 320 IC50/EC50; system= Colo320; entry= COc1cccc2c1C(=O)c1c(O)c3c(c(O)c1C2=O)C[C@@](O)(C(=O)CO)CC3OC1CC(N2CCOC(OC)C2)C(O)C(C)O1 (stereo partly shown) [NCGC00319019-01] ; returns value.
0.001

Param readout= Basal_Viability ATP Colo 320 IC50/EC50; system= Colo320; entry= COc1cccc2c1C(=O)c1c(O)c3c(c(O)c1C2=O)C[C@@](O)(C(=O)CO)C[C@@H]3O[C@H]1C[C@H](N)[C@H](O[C@@H]2CCCCO2)[C@H](C)O1 [NCGC00344543-01] ; returns value.
2.013

---

# System: HeLa cells
# assayProcedure: cells
# Format: cell-based
# experimentalConditions: 4N
resultType: IC50/EC50, Hela CellCycMod PI 4N (assay number 16)

For orientation, consider the following solved cases.
compound="NC(N)=NN=C(/C=C/c1ccc([N+](=O)[O-])o1)/C=C/c1ccc([N+](=O)[O-])o1 [NCGC00181330-02]" measuredvalue="> 10 µM"
compound="CCN(CC)CCNc1ccc(CO)c2sc3ccccc3c(=O)c12 [NCGC00016622-08]" measuredvalue="> 10 µM"
compound="COC(=O)Nc1nc2ccc(C(=O)C3CC3)cc2[nH]1 [NCGC00262953-01]" measuredvalue="0.4164 µM"
compound="CCCCc1ccc2nc(NC(=O)OC)[nH]c2c1 [NCGC00016706-07]" measuredvalue="0.01062 µM"
compound="O=c1c(-c2ccccc2)c1-c1ccccc1 [NCGC00166113-04]" measuredvalue="> 10 µM"
compound="OC[C@H]1O[C@@H](n2cnc3c(=S)nc[nH]c32)[C@H](O)[C@@H]1O [NCGC00096122-05]" measuredvalue="> 10 µM"

API: the following record is the query input.
What IC50/EC50, Hela CellCycMod PI 4N (assay number 16) value was documented for this compound, Cn1cnc([N+](=O)[O-])c1Sc1ncnc2nc[nH]c12 [NCGC00015060-18] ?
> 10 µM

---

# Tested on: HCT116 cells treated with a GSK3β inhibitor
# assayProcedure: cells
# Assay type: cell-based
# experimentalConditions: Homo sapiens, HCT-116, read-out: GSK3b inh pretreated_Viability ATP HCT116
resultType: IC50 (nM)
Quick reminder: number only, in nM, skip the unit.

molecule="CN1CC[C@H](c2c(O)cc(O)c3c(=O)cc(-c4ccccc4Cl)oc23)[C@H](O)C1 [Flavopiridol]" measuredvalue=297
molecule="CCC(C)n1ncn(-c2ccc(N3CCN(c4ccc(OCC5COC(Cn6cncn6)(c6ccc(Cl)cc6Cl)O5)cc4)CC3)cc2)c1=O (stereo not shown) [itraconazole]" measuredvalue=8690
molecule="CC[C@@]1(O)C(=O)OCc2c1cc1n(c2=O)Cc2c-1nc1ccccc1c2/C=N/OC(C)(C)C [Gimatecan]" measuredvalue=66.7

Param readout= IC50; system= HCT116 cells treated with a GSK3β inhibitor; entry= CN(C)c1ccc(C(=C2C=CC(=[N+](C)C)C=C2)c2ccccc2)cc1 [malachite green] ; returns value.
9.83

Where do the numbers come from? From paper PMC4503722.
